Test system: Wolbachia pipientis
Assay: Anti-Wolbachia Cell-Based Screen
Assay type: functional
Design: scale not given: in the data most compounds retested in dose-response had high values
Details: 5 µM
About 13,000 (27%) of roughly 48,000 compounds showed an effect of 50% or more. Some of the results follow.
Quick reference for Percent Effect among some compounds
Numbers only; they are read as %.

Past entries and their recorded results:
O=C(c1ccc[nH]1)N1C[C@H](OCc2cccnc2)[C@H]2COC[C@H]21    -9.205
Cc1nc(C)c(C(=O)NCCOc2ccc(C(F)(F)F)cn2)o1    -28.79
C[C@@H]1C(=O)NC[C@H]2CN(Cc3ccc4c(c3)OCO4)C[C@H]21.O=C(O)C(F)(F)F    109.9
CN1CCC(NC(=O)CCCc2cc(Cl)sc2Cl)C1=O (configuration not stated)    -5.326
CCS(=O)(=O)N1CCOC2(CCCN(c3ncc(F)cn3)C2)C1 (configuration not stated)    -5.745
COc1ccc(CN2CCC3(CC2)C(C(=O)O)CC(=O)N3C)cc1Cl (configuration not stated)    2.306
COc1ccnc(CNc2nc(C)nc3ccsc23)c1    -33.44
O=C(O)C(F)(F)F.O=C([C@H]1CCS(=O)(=O)[C@@H]2CN(CCc3ccccc3)C[C@H]12)N1CCCC1    -9.586
Cc1c[nH]c(CN2CCN(C)C3(CCC(=O)N(CC4CC4)CC3)C2)n1 (configuration not stated)    -1.954
C[C@H]1C(=O)NC[C@H]2CN(CCc3ccccc3)C[C@H]21.O=C(O)C(F)(F)F    113.2

State its Percent Effect for this compound: CN(C)[C@H]1COC[C@@H]2CN(Cc3ccc4c(c3)OCO4)C[C@@H]21.O=C(O)C(F)(F)F.O=C(O)C(F)(F)F
-0.2221

State its Percent Effect for this compound: CN1CCC(NC(=O)Nc2ccc(F)c(-n3cccc3)c2)C1=O (configuration not stated)
0.2161

State its Percent Effect for this compound: Cc1nn(C)c2nc(N3CCN(Cc4nccn4C)CC3)sc12
103.8

State its Percent Effect for this compound: CN1CCC(NC(=O)Nc2ccc(Cl)c(F)c2)C1=O (configuration not stated)
7.915

State its Percent Effect for this compound: COc1cc(CN2CCN(CC3CC3)[C@@H]3CS(=O)(=O)C[C@@H]32)cc(OC)c1
-1.299

State its Percent Effect for this compound: CCc1nc(CNc2nc3c(s2)c(C)nn3C)cs1
-39.2

State its Percent Effect for this compound: CCn1c(C2CCCN(Cc3cc(OC)cc(OC)c3)C2)nn(C)c1=O (configuration not stated)
-1.28

State its Percent Effect for this compound: O=C(C1CC1)N1CCC2(CCN(Cc3cccc(F)c3)CC2)CC1.O=C(O)C(F)(F)F
10.09

State its Percent Effect for this compound: COCc1noc(CCNC(=O)c2ccc(C3CCCO3)s2)n1 (configuration not stated)
-0.9385

###

Test system: Wolbachia pipientis
Assay: Anti-Wolbachia Cell-Based Screen
Format: functional
Set-up: scale not given: in the data most compounds retested in dose-response had high values
Details: 5 µM
Hit rate of the full screen: of about 48,000 compounds, about 13,000 (27%) showed an effect of 50% or more. This is one part of the list.
Quick reference for Percent Effect among some compounds
Numbers only; they are read as %.

Past entries and their recorded results:
CC(C)NC(=O)NC(C)c1ccc(-c2ccncc2)cc1 (configuration not stated)    -5.821
Cc1cc(NC(=O)C(C)NCCn2cccn2)no1 (configuration not stated)    7.799
COc1ccc(C(C(=O)O)N(C)Cc2c(C)nn(C)c2C)c(C)c1 (configuration not stated)    108.6
COc1cc(C)cc(OC)c1C(C(=O)O)N(C)Cc1c(C)nn(C)c1C (configuration not stated)    77.2
Cc1cc(NC(=O)C(C)Nc2ccn(Cc3ccccn3)n2)on1 (configuration not stated)    -74.41

State its Percent Effect for this compound: Cc1cc(CNC(=O)Nc2cccc(COCCOC(C)C)c2)no1
4.138

State its Percent Effect for this compound: N[C@H]1CC[C@@H](Nc2nccc(CCC(F)(F)F)n2)CC1
2.361

###

Quick reference for Percent Effect among some compounds
System: Wolbachia pipientis
Assay: Anti-Wolbachia Cell-Based Screen
Assay type: functional
Set-up: scale not given: in the data most compounds retested in dose-response had high values
Conditions: 5 µM
The campaign covered roughly 48,000 compounds. About 13,000 (27%) showed an effect of 50% or more. This is one part of the list.
Param answer (str): number followed by unit.

Past entries and their recorded results:
Cc1ccc(-c2nc(CNC3CCc4ncnn4C3)co2)cc1 (stereo unspecified)    77.78%
Cc1nc(C2CCCN2CC(=O)N2CCCc3ccccc32)no1 (stereo unspecified)    -7.265%
CCc1c(C)nc2n(c1=O)CC(C(=O)Nc1ccccc1F)CS2 (stereo unspecified)    -0.8379%

Give Percent Effect; test system Wolbachia pipientis; compound O=C(c1cn(-c2ccc(C(F)(F)F)cn2)nn1)N1CCCCCC1
-5.295%

Give Percent Effect; test system Wolbachia pipientis; compound COc1ccc(NC(=O)Cn2ccc3c(=O)n(C)ccc32)cc1OC
174.8%

###

Quick reference for Percent Effect among some molecules
Test system: Wolbachia pipientis
Assay: Anti-Wolbachia Cell-Based Screen
Assay type: functional
Set-up: scale not given: in the data most compounds retested in dose-response had high values
Conditions: 5 µM
In all, about 48,000 compounds went through this assay and about 13,000 (27%) showed an effect of 50% or more. The list shows a part of the results.
Numbers only; they are read as %.

Past entries and their recorded results:
O=C(CCN1C(=O)CCC1=O)Nc1ccc(Cl)cc1    9.29
CN(CCCc1cc(-c2cccc(F)c2)n[nH]1)C(=O)Cn1cncn1    -5.082
Cc1nn(C)c(C)c1NC(=O)CCn1ncc2c(C)cccc21    -5.64
CC(NC(N)=O)C(=O)N1CCCN(Cc2nccn2C(C)C)CC1 (centres undefined)    -6.463
CC1(C(=O)N2CCOCC2)CN(Cc2ncc[nH]2)CCO1 (centres undefined)    90.74
Cn1ccnc1CN1CCOC(C)(C(=O)N2CCOCC2)C1 (centres undefined)    108.3

State its Percent Effect for this molecule: Cc1ccc(C(=O)Nc2ccc(S(=O)(=O)/N=C3\CCCN3C)cc2)s1
80.8

State its Percent Effect for this molecule: Cc1cc(N2CCCN(CCc3ccccc3)CC2)ccn1
5.317

State its Percent Effect for this molecule: CC(C)n1ccnc1CN1CCOC(C)(C(=O)N2CCOCC2)C1 (centres undefined)
127.3

State its Percent Effect for this molecule: O=C(Nc1ccccc1C(=O)NCCCN1CCOCC1)c1ccco1
10.69

###

Test system: Wolbachia pipientis
Experiment: Anti-Wolbachia Cell-Based Screen
Type: functional
Parameters: scale not given: in the data most compounds retested in dose-response had high values
Settings: 5 µM
In all, about 48,000 compounds went through this assay and about 13,000 (27%) showed an effect of 50% or more. The list shows a part of the results.
Quick reference for Percent Effect among some compounds
Numbers only; they are read as %.

Past entries and their recorded results:
Cn1cnnc1CC1CCN(Cc2c(Cl)cncc2Cl)CC1    -0.137
CCc1noc(C)c1C(=O)N(C)Cc1ncc(C)c(OC)c1C    -4.169
O=C(NCc1nn(-c2ccccc2)c2c1CCC2)NC1CC1    -2.781
O=C(C1CCCO1)N1CCC2(CC1)COCCN(Cc1ccncc1)C2.O=C(O)C(F)(F)F.O=C(O)C(F)(F)F (configuration not stated)    -9.895
CCNC(=O)N(C)C1CCN(Cc2ncc(C)c(OC)c2C)CC1    110.9
Cc1nc(CN2CCCC(N(C)CCc3ccncc3)C2)no1 (configuration not stated)    -4.077
O=C(C1CCCO1)N1CCC2(CC1)COCCN(Cc1cccnc1)C2.O=C(O)C(F)(F)F.O=C(O)C(F)(F)F (configuration not stated)    128.2
COCC(NC(=O)NCc1ccc(C)c(F)c1)c1ccco1 (configuration not stated)    5.842

Give Percent Effect; test system Wolbachia pipientis; compound CN(CCc1ccccn1)C1CCCN(Cc2noc(C3CC3)n2)C1 (configuration not stated)
103.4

Give Percent Effect; test system Wolbachia pipientis; compound O=C(O)C(F)(F)F.O=C(O)C(F)(F)F.O=C(c1ccsc1)N1CCC2(CC1)COCCN(Cc1ccncc1)C2
15.81

###

Test system: Wolbachia pipientis
Test: Anti-Wolbachia Cell-Based Screen
Type: functional
Parameters: scale not given: in the data most compounds retested in dose-response had high values
Conditions: 5 µM
Among all 48,000 compounds or so, about 13,000 (27%) showed an effect of 50% or more. The list shows a part of the results.
Measured attribute: Percent Effect (%)
Numbers only; they are read as %.

CCC(CC)CNC(=O)N(C)C(C)c1ccccn1 (stereo unspecified)    -0.07078

State its Percent Effect for this compound: Cc1cccc(C(C(=O)N2CC(c3ccccn3)C2)N(C)C)c1 (stereo unspecified)
-0.3127

State its Percent Effect for this compound: COc1ccc(-n2ccnc2-c2cnc(N(C)C)nc2)cc1OC
-6.365

State its Percent Effect for this compound: CN(C)S(=O)(=O)N(C)C(c1cccnc1)c1ccc(F)c(F)c1 (stereo unspecified)
6.924

State its Percent Effect for this compound: CC(NCc1cccc(S(=O)(=O)N(C)C)c1)c1ccccn1 (stereo unspecified)
-1.385

State its Percent Effect for this compound: CN(C)C(C(=O)N1CC(c2ccccn2)C1)c1cccc(F)c1 (stereo unspecified)
0.3934
